Please provide measured self-cleavage for the entries that follow.
B1: CPEB3 Ribozyme (parent)
chain: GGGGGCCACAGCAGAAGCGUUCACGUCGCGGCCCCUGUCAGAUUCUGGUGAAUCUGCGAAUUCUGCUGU

variants of: B1; test: self-cleavage, relative activity (ratio to wild type); higher = more cleavage; co-transcriptional
Answers are plain numbers.

U53A U64A	0.822
G47U C57G	0.311
C34G C45A	0.641
G19C G58C	0.12

Can you give me self-cleavage for all of these, one by one?
1. A16G U64A
2. G17C G41C
3. G14C C63A
4. C39A U53G
5. U38C U67A

Result:
1: 0.645; 2: 0.156; 3: 0.928; 4: 0.351; 5: 0.931

Record self-cleavage for all entries; do not skip any.
1. A8G C57G
2. G47U A51U

Result:
0.203
1.01

Batch: self-cleavage for all items listed.
1. C18U C57G
2. C7A C18A

Result:
1: 0.271; 2: 0.0823
